System: TK-10 renal
assay notes: NCI-60 one-dose screen, 48 h (100 = growth as untreated, 0 = no growth, -100 = all killed)
assay conditions: 10 µM unless noted
About 83,000 compounds went through this panel and 20% of them were active in at least one assay; those are over-represented in the sample as a whole.
outcome measure: growth (%)

>  <compound structure string>
COc1ccc(C(=O)C/C(=C\c2ccc(O)c(OC)c2)C(=O)NN)cc1

>  <outcome measure>
growth

>  <unit descriptor>
%

>  <measurement>
111

$$$$
>  <compound structure string>
COc1ccc(OC)c(Nc2nnc(-c3cc(OC)c(OC)c(OC)c3)o2)c1

>  <outcome measure>
growth

>  <unit descriptor>
%

>  <measurement>
103

$$$$
>  <compound structure string>
O=S(=O)(Nc1cc(F)cc(F)c1)c1ccc(-c2cnc(C3CC3)o2)cc1

>  <outcome measure>
growth

>  <unit descriptor>
%

>  <measurement>
63.1

$$$$
>  <compound structure string>
CNC(=O)c1cc(Oc2ccc3c(c2)sc2nc(-c4cc(C(F)(F)F)cc(C(F)(F)F)c4)cn23)ccn1

>  <outcome measure>
growth

>  <unit descriptor>
%

>  <measurement>
36

$$$$
>  <compound structure string>
COc1ccc(-c2cc(-c3cccnc3)nc3sc4c(N)c(C(C)=O)c(-c5ccccc5)nc4c23)cc1OC

>  <outcome measure>
growth

>  <unit descriptor>
%

>  <measurement>
77.6

$$$$
>  <compound structure string>
COc1cc2c(cc1-c1c(C)noc1C)ncc1nc(CN3CCOCC3)n([C@H](C)COC(F)F)c12

>  <outcome measure>
growth

>  <unit descriptor>
%

>  <measurement>
2.77

$$$$
>  <compound structure string>
CC1=C(Cl)C(=O)c2cc(C)ccc2C1=O

>  <outcome measure>
growth

>  <unit descriptor>
%

>  <measurement>
108

$$$$
>  <compound structure string>
COc1ccc(/C=C2\c3cc(OC)c(OC)c(OC)c3CC[C@@H]2O)cc1F

>  <outcome measure>
growth

>  <unit descriptor>
%

>  <measurement>
57.9

$$$$
>  <compound structure string>
COCCn1cc(-c2nc(-c3cc4cccnc4n3C)cs2)c2ccccc21

>  <outcome measure>
growth

>  <unit descriptor>
%

>  <measurement>
44.2

$$$$
>  <compound structure string>
COc1ccc(Oc2ccc(/C=C/C(=O)c3ccc(OC)c(OC)c3)cc2)cc1

>  <outcome measure>
growth

>  <unit descriptor>
%

>  <measurement>
105

$$$$
>  <compound structure string>
Clc1ccc(Nc2ncc(Cc3cccc(Cl)c3Cl)s2)cc1

>  <outcome measure>
growth

>  <unit descriptor>
%

>  <measurement>
98.3

$$$$
>  <compound structure string>
O=C1C(Cl)=C(Nc2ccccc2)C(=O)c2ccccc21

>  <outcome measure>
growth

>  <unit descriptor>
%

>  <measurement>
172

$$$$
>  <compound structure string>
O=C(Nc1ccc(Oc2cccc(Cl)c2)c(Cl)c1)c1cccnn1

>  <outcome measure>
growth

>  <unit descriptor>
%

>  <measurement>
75

$$$$
>  <compound structure string>
Oc1c(I)cc(I)cc1CN(Cc1ccccn1)Cc1ccccn1

>  <outcome measure>
growth

>  <unit descriptor>
%

>  <measurement>
8.19

$$$$
>  <compound structure string>
O=C(NCCN1CCOCC1)OCc1ccc2c(Cl)cc(Cl)c(O)c2n1

>  <outcome measure>
growth

>  <unit descriptor>
%

>  <measurement>
96.4

$$$$

====

System: HCT-15 colon
assay notes: NCI-60 one-dose screen, 48 h (100 = growth as untreated, 0 = no growth, -100 = all killed)
assay conditions: 10 µM unless noted
Compounds without any hit were thinned out: in the full panel of roughly 83,000, 20% have a hit.
Measured growth by item

>  <molecule>
CSc1nc(-c2ccco2)c(C#N)c(=O)n1C

>  <unit descriptor>
%

>  <growth>
98.1

$$$$
>  <molecule>
CC(C)(C)c1ccc(S(=O)(=O)Oc2ccc(-c3sc4cc(OS(=O)(=O)c5ccc(C(C)(C)C)cc5)ccc4c3C(=O)c3ccc(OCCN4CCCCC4)cc3)cc2)cc1

>  <unit descriptor>
%

>  <growth>
97.8

$$$$
>  <molecule>
CCOC(=O)C1=C(c2ccccc2)N=C2N(c3ccccc3)N=C(C(C)=O)N2C1c1ccc(F)cc1 (configuration not stated)

>  <unit descriptor>
%

>  <growth>
90.8

$$$$
>  <molecule>
Clc1ccc2nn3c4ccccc4c(OCCN4CCOCC4)nc3c2c1

>  <unit descriptor>
%

>  <growth>
89.8

$$$$
>  <molecule>
C=CC(=O)Nc1cccc(Oc2nccc(Nc3nnc(-c4ccc(Br)cc4)s3)n2)c1

>  <unit descriptor>
%

>  <growth>
88.6

$$$$
>  <molecule>
COC(=O)c1sccc1-c1cc(O)c(C(=O)Nc2ccccc2)s1

>  <unit descriptor>
%

>  <growth>
97.7

$$$$
>  <molecule>
COC(=O)[C@]1(C)CCC[C@]2(C)[C@H]3C[C@@H]4[C@H]5[C@@H]6CC/C(=N\OCC/C(N)=N/O)[C@H]5[C@@]3(CC[C@H]21)CC4(C(C)C)O6

>  <unit descriptor>
%

>  <growth>
36.6

$$$$

====

Tested on: MDA-MB-435 melanoma
assay notes: NCI-60 one-dose screen, 48 h (100 = growth as untreated, 0 = no growth, -100 = all killed)
assay conditions: 10 µM unless noted
The panel holds about 83,000 compounds, 20% with a hit somewhere; the sample as a whole holds those more often.

>  <molecule>
O=C(Nc1ccccc1O)c1ccc(CNc2ccnc(C(F)(F)F)c2)cc1

>  <tgt>
MDA-MB-435 melanoma

>  <unit descriptor>
%

>  <growth>
45.3

$$$$
>  <molecule>
COc1ccc2c(c1)C(C)Cc1c(ncnc1-n1cnc3cc(C)ccc31)N2C (stereo not drawn)

>  <tgt>
MDA-MB-435 melanoma

>  <unit descriptor>
%

>  <growth>
-17.5

$$$$
>  <molecule>
CCOC(=O)c1cn2ncnc(Oc3ccc(NC(=O)NC4CC4)c(Cl)c3)c2c1C

>  <tgt>
MDA-MB-435 melanoma

>  <unit descriptor>
%

>  <growth>
96.4

$$$$

====

Tested on: OVCAR-8 ovarian
assay notes: NCI-60 one-dose screen, 48 h
assay conditions: 10 µM unless noted
About 83,000 compounds went through this panel and 20% of them were active in at least one assay; those are over-represented in the sample as a whole. Calls of active or inactive are those of the source. Rule for the calls: active = growth percent below 10; inactive = the rest.
Outcome codes: 1.0 (active), 0.0 (inactive)

>  <molecule>
S=c1ccnc[nH]1

>  <class>
0.0

$$$$
>  <molecule>
C#CCOc1cccc(Nc2ncnc3cc(NC(=O)CCl)ccc23)c1

>  <class>
1.0

$$$$
>  <molecule>
Cc1ccc(-c2nc(SCC(=O)N3CCN(c4cc5c(cc4F)c(=O)c(C(=O)O)cn5C4CC4)CC3)nc(Cl)c2C#N)cc1

>  <class>
0.0

$$$$
>  <molecule>
Nc1c(Br)cc2c(c1Br)Cc1cc([N+](=O)[O-])ccc1-2

>  <class>
0.0

$$$$
>  <molecule>
Nc1nc(N(Cc2ccccc2)c2ccccc2)c2cn[nH]c2n1

>  <class>
0.0

$$$$
>  <molecule>
COc1ccc(C(c2cc(OC)c(OC)c(OC)c2)N2CCCCC2)cc1 (stereo unspecified)

>  <class>
0.0

$$$$
>  <molecule>
C=C[C@@]1(C)CC(=O)[C@@H](C(C)(C)c2cn(C)c3ccc(Br)cc23)C[C@@H]1O[Si](C)(C)C(C)(C)C

>  <class>
0.0

$$$$
>  <molecule>
Cc1ccc(C(=O)c2ccc(CC(=O)N/N=C/c3cccc(O)c3O)n2C)cc1

>  <class>
0.0

$$$$
>  <molecule>
CN(C)CCC(=O)C1CC1

>  <class>
0.0

$$$$
>  <molecule>
CC(O)Cc1c[nH]c(=O)[nH]c1=O (stereo unspecified)

>  <class>
0.0

$$$$
>  <molecule>
COc1ccc(C(=O)C/C(=C\c2ccc(O)c(OC)c2)C(=O)NN)cc1

>  <class>
0.0

$$$$
>  <molecule>
COCCn1cc(-c2nc(-c3c[nH]c4ncccc34)cs2)c2ccccc21

>  <class>
0.0

$$$$
>  <molecule>
Cc1ccc(NC(=O)c2sc3nc(C)c(C(O)c4ccccc4)cc3c2N)cc1 (stereo unspecified)

>  <class>
0.0

$$$$
>  <molecule>
CC1(C)CC[C@]23CC[C@]4(C)[C@H](CC[C@@H]5[C@@]6(C)CCNCC(C)(C)[C@@H]6CC[C@]54C)[C@H]2[C@H]1OC3

>  <class>
0.0

$$$$
>  <molecule>
COCCOC(C)C(/C=N/NC(N)=S)=N/NC(N)=S (stereo unspecified)

>  <class>
0.0

$$$$
>  <molecule>
Clc1ccc(Nc2nnc(CNc3ccccc3)c3ccccc23)cc1

>  <class>
0.0

$$$$

====

Test system: HT29 colon
assay notes: NCI-60 one-dose screen, 48 h (100 = growth as untreated, 0 = no growth, -100 = all killed)
assay conditions: 10 µM unless noted
About 83,000 compounds went through this panel and 20% of them were active in at least one assay; those are over-represented in the sample as a whole.
Measured growth by item

>  <molecule>
CCn1cc(C(=O)O)c(=O)c2cc(F)c(N3CCN(CC(=O)Nc4ccccc4)C(C)C3)c(F)c21 (stereo not drawn)

>  <tgt>
HT29 colon

>  <unit descriptor>
%

>  <growth>
108

$$$$
>  <molecule>
CCN(CC)CCOc1ccc(/C(=C(\C)Cc2ccc(OC)cc2)c2ccc(OC(=O)NCc3ccccc3)cc2)cc1

>  <tgt>
HT29 colon

>  <unit descriptor>
%

>  <growth>
-34.8

$$$$
>  <molecule>
CC/C(=C(\c1ccc(Cl)cc1)c1ccc(OCCN2CCCCC2)cc1)c1ccc(O)cc1

>  <tgt>
HT29 colon

>  <unit descriptor>
%

>  <growth>
-37.2

$$$$
>  <molecule>
O=C1/C(=C/c2c[nH]c(=O)[nH]c2=O)SC(=S)N1Cc1ccccc1

>  <tgt>
HT29 colon

>  <unit descriptor>
%

>  <growth>
101

$$$$
>  <molecule>
Clc1ccc(Nc2ncc(Cc3cccc(Cl)c3Cl)s2)cc1

>  <tgt>
HT29 colon

>  <unit descriptor>
%

>  <growth>
95.7

$$$$
>  <molecule>
COc1cc(/C=C/C(=O)c2cccc(-n3cc(-c4ccc(Cl)cc4)[nH]c3=O)c2)ccc1O

>  <tgt>
HT29 colon

>  <unit descriptor>
%

>  <growth>
27

$$$$
>  <molecule>
C=CC(CC(c1ccccc1)(c1ccccc1)c1ccccc1)N(CC)CC (stereo not drawn)

>  <tgt>
HT29 colon

>  <unit descriptor>
%

>  <growth>
16.2

$$$$
>  <molecule>
COC1C(O)CC(OC2CC(OC3CC(O[C@@H]4C(=O)c5c(cc6cc(OC7CC(OC8CC(O)C(O)C(C)O8)C(O)C(C)O7)c(C)c(O)c6c5O)CC4[C@H](OC)C(=O)C(C)=O)OC(C)C3O)OC(C)C2O)OC1C (stereo partly drawn)

>  <tgt>
HT29 colon

>  <unit descriptor>
%

>  <growth>
-19.8

$$$$
